- Tested Target: von Willebrand factor full length (Homo sapiens, UniProt P04275 SEQ:764-2813)
- Method: filter; 26.5% bound at 100 nM vWF
- Setup Conditions: tags: Calbiochem 681300; label: 5'-32P
pKd: −log10 of the molar value.
Assay Endpoint: pKd

GCGUGCAGUGCCUUCGGCCGTGCGGTGCCUCCGUCACGC (mixed, 2'-OMe/deoxy composite, single PS between mG20 and dT21, 3'-idT) [ARC1524] :: 8.24
